Target: iNOS (Homo sapiens)
Quantity kind: pIC50
A value of pIC50 is the negative decimal logarithm of a concentration given in moles per litre.

Output reported pIC50 of the compound CC(O)C(O)C1=Nc2c(N)nc(N)nc2NC1 [VAS3384, 4-Amino-(6R,S)-7,8-dihydro-L-biopterin] on iNOS (Homo sapiens). 4.92
